- Assayed target: IMP-1 (Serratia marcescens)
- Sequence (P52699 whole entry, looked up): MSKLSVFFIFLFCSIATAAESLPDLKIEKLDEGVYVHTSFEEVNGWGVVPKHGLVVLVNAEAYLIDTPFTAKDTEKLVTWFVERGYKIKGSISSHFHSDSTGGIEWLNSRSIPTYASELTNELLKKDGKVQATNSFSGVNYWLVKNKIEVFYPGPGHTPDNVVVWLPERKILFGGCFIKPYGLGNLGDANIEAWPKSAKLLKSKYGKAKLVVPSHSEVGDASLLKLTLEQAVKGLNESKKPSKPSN
- Protocol description: biochemical
- Assay type: biochemical
- Applied conditions: fluorescence assay with CCF2-FA substrate; read-out: IMP-1 IC50
Measured parameter: IC50 (nM)
Provide only the numeric value, understood in nM.

Inquiry: Look up IC50: NS(=O)(=O)c1cccc(-c2ccc(-c3ccn[nH]3)cc2)c1-c1nn[nH]n1 [Example 50]
Reply text: 37.9

Inquiry: Look up IC50: NS(=O)(=O)c1c(C(F)(F)F)ccc([C@H]2CC[C@H](N)CC2)c1-c1nnn[nH]1 [Example 820]
Reply text: 39.4

Inquiry: Look up IC50: NS(=O)(=O)c1cccc(C2CCCC2)c1-c1nnn[nH]1 [Example 160]
Reply text: 251

Inquiry: Look up IC50: NC1CCC(c2cccc(S(N)(=O)=O)c2-c2nn[nH]n2)CC1 (centres unmarked) [Example 168]
Reply text: 865

Inquiry: Look up IC50: NS(=O)(=O)c1cccc(-c2cnn3ncccc23)c1-c1nn[nH]n1 [Example 105]
Reply text: 374

----------
- Assayed target: VIM-1 (Pseudomonas aeruginosa (strain ATCC 15692 / DSM 22644 / CIP 104116 / JCM 14847 / LMG 12228 / 1C / PRS 101 / PAO1), UniProt A0A0F7KYQ8)
- Protocol description: Enzyme activity: determination of IC50, fluorescence assay with CCF2-FA substrate (VIM-1)
- Type: biochemical
- Applied conditions: VIM-1 enzyme, CCF2-FA fluorescence assay; read-out: VIM-1 IC50
Structures can show the parent of a compound that is named as a salt.
Labelling field: enter satisfied if recorded IC50 is less than 60 nM. Enter not satisfied if it equals or exceeds that cut-off.

Inquiry: Please indicate whether the reported IC50 of `N=C(N)NCc1ccc(-c2ccc(C(F)(F)F)c(S(N)(=O)=O)c2-c2nn[nH]n2)cc1` is strictly below 60 nM.
Reply text: satisfied

Inquiry: Please indicate whether the reported IC50 of `NS(=O)(=O)c1cccc(-c2ccc(CN[C@H]3COC[C@@H]3O)cc2)c1-c1nnn[nH]1` is strictly below 60 nM.
Reply text: not satisfied

Inquiry: Please indicate whether the reported IC50 of `Nc1ccc2cc(-c3cccc(S(N)(=O)=O)c3-c3nnn[nH]3)ccc2n1` is strictly below 60 nM.
Reply text: satisfied

Inquiry: Please indicate whether the reported IC50 of NS(=O)(=O)c1cccc(-c2ccc(CN3CCC3C(=O)O)cc2)c1-c1nnn[nH]1 (stereo not drawn) is strictly below 60 nM.
Reply text: not satisfied

Inquiry: Please indicate whether the reported IC50 of `NS(=O)(=O)c1cccc(-c2ccc(NCCO)nc2)c1-c1nn[nH]n1` is strictly below 60 nM.
Reply text: not satisfied

Inquiry: Please indicate whether the reported IC50 of `CC(C)(O)C1CN(Cc2ccc(-c3cccc(S(N)(=O)=O)c3-c3nnn[nH]3)cc2)C1` is strictly below 60 nM.
Reply text: not satisfied

Inquiry: Please indicate whether the reported IC50 of `NS(=O)(=O)c1c(CC2CCNCC2)ccc(-c2ccc(C3CCNCC3)cc2)c1-c1nn[nH]n1` is strictly below 60 nM.
Reply text: satisfied

Inquiry: Please indicate whether the reported IC50 of `NS(=O)(=O)c1cccc(-c2ccc(CN3C[C@H](O)C[C@H]3CO)cc2)c1-c1nnn[nH]1` is strictly below 60 nM.
Reply text: not satisfied

Inquiry: Please indicate whether the reported IC50 of `NS(=O)(=O)c1nccc(N2CCC(O)CC2)c1-c1nnn[nH]1` is strictly below 60 nM.
Reply text: not satisfied

Inquiry: Please indicate whether the reported IC50 of `N#CCCc1ccc(-c2ccnc3ccccc23)c(-c2nn[nH]n2)c1S(N)(=O)=O` is strictly below 60 nM.
Reply text: satisfied

Inquiry: Please indicate whether the reported IC50 of `NS(=O)(=O)c1c(C(F)(F)F)ccc(-c2cccn3cncc23)c1-c1nnn[nH]1` is strictly below 60 nM.
Reply text: satisfied

Inquiry: Please indicate whether the reported IC50 of `CNCc1ccc(-c2cccc(S(N)(=O)=O)c2-c2nnn[nH]2)cc1` is strictly below 60 nM.
Reply text: not satisfied

Inquiry: Please indicate whether the reported IC50 of `NS(=O)(=O)c1cccc(-c2ccc3nccnc3c2)c1-c1nnn[nH]1` is strictly below 60 nM.
Reply text: satisfied

Inquiry: Please indicate whether the reported IC50 of `NS(=O)(=O)c1c(C(F)(F)F)ccc(-c2ccnc3ccccc23)c1-c1nn[nH]n1` is strictly below 60 nM.
Reply text: satisfied

Inquiry: Please indicate whether the reported IC50 of `NS(=O)(=O)c1cccc(-c2ccc(CNC(CO)CO)cc2)c1-c1nnn[nH]1` is strictly below 60 nM.
Reply text: not satisfied

Inquiry: Please indicate whether the reported IC50 of `Cn1cncc1C[C@@H](NCc1ccc(-c2cccc(S(N)(=O)=O)c2-c2nnn[nH]2)cc1)C(=O)O` is strictly below 60 nM.
Reply text: not satisfied

Inquiry: Please indicate whether the reported IC50 of NS(=O)(=O)c1cccc(-c2ccc(C3(O)CCNC3)cc2)c1-c1nn[nH]n1 (stereo not drawn) is strictly below 60 nM.
Reply text: satisfied

Inquiry: Please indicate whether the reported IC50 of `Nc1ccnc2cc(-c3cccc(S(N)(=O)=O)c3-c3nnn[nH]3)ccc12` is strictly below 60 nM.
Reply text: satisfied

Inquiry: Please indicate whether the reported IC50 of `Cc1ccc(-c2ccc(Br)c(S(N)(=O)=O)c2-c2nn[nH]n2)cc1` is strictly below 60 nM.
Reply text: satisfied

Inquiry: Please indicate whether the reported IC50 of `NS(=O)(=O)c1cccc(-c2cnc3ccoc3c2)c1-c1nn[nH]n1` is strictly below 60 nM.
Reply text: satisfied

Inquiry: Please indicate whether the reported IC50 of `NS(=O)(=O)c1cccc(-c2ccccc2O)c1-c1nn[nH]n1` is strictly below 60 nM.
Reply text: not satisfied

Inquiry: Please indicate whether the reported IC50 of NS(=O)(=O)c1c(CC2(F)CCNC2)ccc(-c2ccc(C3CCNCC3)cc2)c1-c1nn[nH]n1 (stereo not drawn) is strictly below 60 nM.
Reply text: satisfied

Inquiry: Please indicate whether the reported IC50 of CNCC(C)NCc1ccc(-c2cccc(S(N)(=O)=O)c2-c2nn[nH]n2)cc1 (stereo not drawn) is strictly below 60 nM.
Reply text: not satisfied

Inquiry: Please indicate whether the reported IC50 of `NS(=O)(=O)c1cccc(-c2ccc3nccn3c2)c1-c1nn[nH]n1` is strictly below 60 nM.
Reply text: satisfied

Inquiry: Please indicate whether the reported IC50 of Nc1ccc(-c2cccc(S(N)(=O)=O)c2-c2nnn[nH]2)cn1 [Example 298, TFA salt] is strictly below 60 nM.
Reply text: not satisfied

Inquiry: Please indicate whether the reported IC50 of NS(=O)(=O)c1c(CC2CCNC2)ccc(-c2ccc(C3CCNCC3)cc2)c1-c1nn[nH]n1 (stereo not drawn) is strictly below 60 nM.
Reply text: satisfied

Inquiry: Please indicate whether the reported IC50 of `NCc1ccc(-c2ccc(Br)c(S(N)(=O)=O)c2-c2nn[nH]n2)cc1` is strictly below 60 nM.
Reply text: satisfied

Inquiry: Please indicate whether the reported IC50 of `C[C@@H](O)[C@H](NCc1ccc(-c2cccc(S(N)(=O)=O)c2-c2nnn[nH]2)cc1)C(=O)O` is strictly below 60 nM.
Reply text: not satisfied

Inquiry: Please indicate whether the reported IC50 of `CS(=O)(=O)Nc1ccc(-c2ccc(Br)c(S(N)(=O)=O)c2-c2nn[nH]n2)cc1` is strictly below 60 nM.
Reply text: satisfied

Inquiry: Please indicate whether the reported IC50 of `NS(=O)(=O)c1c(C(F)(F)F)ccc(C2CCCC2)c1-c1nnn[nH]1` is strictly below 60 nM.
Reply text: satisfied

Inquiry: Please indicate whether the reported IC50 of NS(=O)(=O)c1cccc(-c2ccc(CN3CCC(CCO)C3)cc2)c1-c1nnn[nH]1 (stereo not drawn) is strictly below 60 nM.
Reply text: not satisfied

Inquiry: Please indicate whether the reported IC50 of `NS(=O)(=O)c1c(CC[C@H]2CC[C@H](N)CC2)ccc(-c2ccc(C3CCNCC3)cc2)c1-c1nn[nH]n1` is strictly below 60 nM.
Reply text: satisfied

Inquiry: Please indicate whether the reported IC50 of `N=CN1CCC(N)(c2ccc(-c3ccc(C(F)(F)F)c(S(N)(=O)=O)c3-c3nn[nH]n3)cc2)CC1` is strictly below 60 nM.
Reply text: satisfied

----------
I'd be grateful if you could share measured IC50 for these entries.
- Assayed target: VIM-1 (Pseudomonas aeruginosa (strain ATCC 15692 / DSM 22644 / CIP 104116 / JCM 14847 / LMG 12228 / 1C / PRS 101 / PAO1), UniProt A0A0F7KYQ8)
- Protocol description: Enzyme activity: determination of IC50, fluorescence assay with CCF2-FA substrate (VIM-1)
- Format: biochemical
- Applied conditions: VIM-1 enzyme, CCF2-FA substrate; read-out: VIM-1 IC50
Provide only the numeric value, understood in nM.

Inquiry: Look up IC50: NS(=O)(=O)c1c(CC[C@H]2CC[C@@H](N)CC2)ccc(-c2ccc(C3CCNC3)cc2)c1-c1nnn[nH]1 (stereo partly shown)
Reply text: 4.58

Inquiry: Look up IC50: `N[C@@H]1CCCN(c2ccc(-c3ccc(C(F)(F)F)c(S(N)(=O)=O)c3-c3nnn[nH]3)cc2)C1`
Reply text: 0.914

Inquiry: Look up IC50: `NS(=O)(=O)c1c(CC2CNC2)ccc(-c2cnc3ccccn23)c1-c1nn[nH]n1`
Reply text: 38.6

Inquiry: Look up IC50: CC(CCCN)N[C@H]1CC[C@H](c2ccc(C(F)(F)F)c(S(N)(=O)=O)c2-c2nnn[nH]2)CC1 (stereo partly shown)
Reply text: 13.4
